- tgt: Retinoic acid receptor RXR-alpha (Homo sapiens)
- assay name: qHTS assay for small molecule agonists of retinoid X receptor alpha signaling (AID 588544);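 also: 0% = DMSO basal wells and 100% = reference agonist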
- experimental parameters: HEK293T RXRa-UAS-bla, beta-lactamase reporter, 18 h; series mostly up to 76.7 µM
Results filed as inconclusive are left out. The source made the active and inactive calls. Calls follow the shape of the full dose curve.
readout kind: outcome

> print(dat)
                                 molecule  experimental.value
1     O=C1C(c2[nH]c3ccccc3c2O)=Nc2ccccc21            inactive
2                             CCCCCC(N)=O            inactive
3     Cc1cc(C)nc(NS(=O)(=O)c2ccc(N)cc2)n1            inactive
4  OC[C@@H](O)[C@@H](O)[C@H](O)[C@H](O)CO            inactive

----------
Entries and their max response values follow.
- Tested on: HEK293
- assay name: Cytotoxic Profiling of Annotated Libraries Using Quantitative High-Throughput Screening (AID 1296008); also: % is scaled to controls: 0 for no effect and ±100 for the full control effect; nearly all actives have a fitted effect of over 60% in size
- experimental parameters: Five cell lines viability, CellTiter-Glo ATP luminescence, 48-72 h; stronger effect = lower value
Results filed as inconclusive are left out.

compound	max response (%)
CCN(CC)C(=O)c1cccc(C)c1	0.224
O=S1(=O)OC(c2ccc(O)cc2)(c2ccc(O)cc2)c2ccccc21	-9.72
Cc1cc(OI)c(C(C)C)cc1-c1cc(C(C)C)c(OI)cc1C	2.3
COc1nccnc1NS(=O)(=O)c1ccc(N)cc1	4.9
C/C=C/C(=O)N(CC)c1ccccc1C	0.227
CC(C)CCCC(C)CCCC(C)CCCCC(C)CCCC(C)CCCC(C)C (stereo not given)	-6.17
Nc1ccncc1N	-11.7
O=C(NCCCN1CCOCC1)c1ccc(Cl)cc1	1.26
CC(=O)N1C[C@H](O)C[C@H]1C(=O)O	1.84
O=C(OOC(=O)c1ccccc1)c1ccccc1	2.9
O=C(NCC(O)CO)c1c(I)c(C(=O)NCC(O)CO)c(I)c(N(CCO)C(=O)CO)c1I (stereo not given)	-0.64
CC(=O)Oc1cccc(O)c1	2.67
CCCCC1(COC(=O)CCC(=O)O)C(=O)N(c2ccccc2)N(c2ccccc2)C1=O	-6.41
CCc1nnc(NS(=O)(=O)c2ccc(N)cc2)s1	-0.578
CN[C@@H]1[C@@H](O)[C@@H](O[C@@H]2[C@H](O)[C@H](O[C@H]3OC(CN)=CC[C@H]3N)[C@@H](N)C[C@H]2N)OCC1(C)O (stereo not given in full)	4.89
COc1ccc(C(=O)N2CCN(CC(=O)N3CCOCC3)CC2)cc1	4.6
Cc1c(NC(C)C)c(=O)n(-c2ccccc2)n1C	-10.6
CCCCCC(C)N (stereo not given)	-4.16
Cc1[nH]c(C)c(Cl)c(=O)c1Cl	-10
O=C(CN1CCNCC1)NC1CCCCC1	-4.92
CCN(CC)CCc1nc(-c2ccccc2)no1	-5.93
COc1ccccc1Oc1c(NS(=O)(=O)c2ccc(C(C)(C)C)cc2)nc(-c2ncccn2)nc1OCCO	-4.43
CNc1c2c(nn1C)CCCC2	-6.59
CN(C(=O)c1c(O)c2ccccc2n(C)c1=O)c1ccccc1	-2.97
O=C(O)C(S)C(S)C(=O)O (stereo not given)	-7.93
CN(C/C=C/C#CC(C)(C)C)Cc1cccc2ccccc12	-4.51
CC[N+](CC)(CC(=O)Nc1c(C)cccc1C)Cc1ccccc1	3.4
Cc1cc(C)c(NC(=O)CN(CC(=O)O)CC(=O)O)c(C)c1Br	-7.54
Cn1c(=O)c2c(ncn2CCO)n(C)c1=O	-4.8
O=C1c2cccc(O)c2C(=O)c2c(O)cccc21	-0.119
Cc1cccc(Nc2ccccc2C(=O)O)c1C	-1.57
O=C(O)[C@@H]1[C@H]2C[C@H]3c4[nH]c5ccccc5c4CCN3C[C@@H]2CC[C@@H]1O	-7.97
Cc1cccc(C(=O)O)c1O	-2.23
O=C(c1ccccc1)C(O)c1ccccc1 (stereo not given)	-4.36
NC(=O)CCCCC1CCSS1 (stereo not given)	2.03
CCOC(=O)[C@H](CCc1ccccc1)N[C@@H](C)C(=O)N1CCC[C@H]1C(=O)O	-1.68
c1ccc2[nH]ccc2c1	-5.55
Cc1ccc(S(=O)(=O)NC(=O)NC2CCCCC2)cc1	2.4
Cc1c(Cn2ccnc2)c2ccccc2n1CCC(=O)O	1.95
CC(=O)SC[C@@H](Cc1ccccc1)C(=O)NCC(=O)OCc1ccccc1	-5.72

----------
Entries and their activity, negative = inhibition values follow.
- assay name: qHTS profiling for inhibitors of Plasmodium falciparum proliferation (AID 504749); also: nearly all actives have a fitted effect of over 60% in size;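 as to activity, negative = inhibition: 0% = DMSO vehicle and full inhibition = artemisinin control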
- experimental parameters: P. falciparum in erythrocytes, SYBR Green DNA, 72 h; at 28.7 µM (top of the series); parasite line A
Records with an inconclusive call do not appear.
readout kind: activity, negative = inhibition (%)

> print(dat)
                                   molecule                     readout.kind  units.of.measure  experimental.value
1               CC(=O)NS(=O)(=O)c1ccc(N)cc1  activity, negative = inhibition                 %                6.18
2  Cc1ccccc1N=Nc1ccc(N=Nc2c(O)ccc3ccccc23)c(C)c1  activity, negative = inhibition                 %                3.72
3                        Cc1ncc(CO)c(CN)c1O  activity, negative = inhibition                 %                7.32

----------
- Test system: 7G8
- assay name: qHTS profiling for inhibitors of Plasmodium falciparum proliferation (AID 504749); also: nearly all actives have a fitted effect of over 60% in size
- experimental parameters: P. falciparum in erythrocytes, SYBR Green DNA, 72 h; series mostly up to 28.7 µM
Records with an inconclusive call do not appear. Active and inactive are the calls of the source. The call rests on the fitted dose curve; in most records, active means well fitted inhibition curve with a large enough effect; inconclusive means small, poorly fitted or top-dose-only effect; inactive means flat fitted curve, though single readings scatter.
Outcomes: active, inactive

compound	label
Cc1cc(OI)c(C(C)C)cc1-c1cc(C(C)C)c(OI)cc1C	active
CCOc1ccc(C(=O)OCCN(CC)CC)cc1	inactive
NS(=O)(=O)c1cc(-c2nn[nH]n2)c(NCc2cccs2)cc1Cl	inactive
O=C(O)c1ccccc1C(=O)Nc1ccc(S(=O)(=O)Nc2nccs2)cc1	inactive
C=CCNC(N)=S	inactive
O=S1(=O)OC(c2ccc(O)cc2)(c2ccc(O)cc2)c2ccccc21	inactive
Cc1cccc(C(=O)O)c1O	inactive
O=C(O)Cn1c(C(=O)Nc2nc(-c3ccccc3Cl)cs2)cc2ccccc21	inactive
NC(N)=NS(=O)(=O)c1ccc(N)cc1	inactive
Cc1ncc(CO)c(CN)c1O	inactive
O=C(O)COC(=O)Cc1ccccc1Nc1c(Cl)cccc1Cl	inactive
Nc1ccncc1N	inactive
Cn1c(=O)c2c(ncn2CCO)n(C)c1=O	inactive
CCN(CC)S(=O)(=O)c1ccc(C(=O)O)cc1	inactive
CC(N)CCCC(C)(C)O (configuration not stated)	inactive
CC(C)C[C@@H](N)C(=O)O	inactive
OCC(O)CS (configuration not stated)	inactive
CC(=O)Nc1cccc(O)c1	inactive
CC(=O)OC[C@H]1O[C@@](COC(C)=O)(O[C@H]2O[C@H](COC(C)=O)[C@@H](OC(C)=O)[C@H](OC(C)=O)[C@H]2OC(C)=O)[C@@H](OC(C)=O)[C@@H]1OC(C)=O	inactive
O=C(OOC(=O)c1ccccc1)c1ccccc1	inactive
O=C(NCN1CCOCC1)c1cnccn1	inactive
CCOC(N)=O	inactive

----------
- assay name: Drug repurposing screens with cells derived from glioblastoma tumor samples (AID 1345199); also: % is scaled to controls: 0 for no effect and ±100 for the full control effect; nearly all actives have a fitted effect of over 40% in size
- experimental parameters: GBM patient neurospheres viability, ATP luminescence, 48 h; at 46.1 µM (top of the series); tumour line C
Inconclusive results are not listed.
readout kind: activity, negative = cell killing (%)

> print(dat)
                                   compound                       readout.kind  experimental.value
1  CC(CSC(=O)c1ccccc1)C(=O)N1C[C@@H](Sc2ccccc2)C[C@H]1C(=O)O (some centres undefined)  activity, negative = cell killing               -14.7
2                    O=C(O)CNC(=O)c1ccccc1I  activity, negative = cell killing               -16.1
3         O[C@@H]1CO[C@H]2[C@@H]1OC[C@@H]2O  activity, negative = cell killing               -10.9
4                        Cc1ncc(CO)c(CN)c1O  activity, negative = cell killing                 -87

----------
- assay name: qHTS assay for environmental chemicals that activate the Aryl hydrocarbon Receptor (AhR) signaling pathway (AID 651777); also: % of control where 0% means no effect; nearly all actives have a fitted effect of over 15% in size
- experimental parameters: 1A2-DRE human hepatoma cells, luciferase, 24 h; stronger effect = higher value
Results filed as inconclusive are left out.
Entries and their activation values follow.
readout kind: activation (%)

> print(dat)
                                   compound  units.of.measure  experimental.value
1  CC[N+](CC)(CC(=O)Nc1c(C)cccc1C)Cc1ccccc1                 %               0.016
2                       CC(C)=CCC/C(C)=C/CO                 %              -0.426
3                           CC(=O)Nc1ccccc1                 %                -1.4
4                     CCCCOC(=O)c1ccc(N)cc1                 %                  13
5  CC1CC(OC(=O)c2ccccc2O)CC(C)(C)C1 (stereo not given)                 %                2.34

FYI, the data here is from PubChem BioAssay (NCATS).
